measured on: Fibroblast growth factor receptor 1 (Homo sapiens)
Sequence (P11362 whole entry): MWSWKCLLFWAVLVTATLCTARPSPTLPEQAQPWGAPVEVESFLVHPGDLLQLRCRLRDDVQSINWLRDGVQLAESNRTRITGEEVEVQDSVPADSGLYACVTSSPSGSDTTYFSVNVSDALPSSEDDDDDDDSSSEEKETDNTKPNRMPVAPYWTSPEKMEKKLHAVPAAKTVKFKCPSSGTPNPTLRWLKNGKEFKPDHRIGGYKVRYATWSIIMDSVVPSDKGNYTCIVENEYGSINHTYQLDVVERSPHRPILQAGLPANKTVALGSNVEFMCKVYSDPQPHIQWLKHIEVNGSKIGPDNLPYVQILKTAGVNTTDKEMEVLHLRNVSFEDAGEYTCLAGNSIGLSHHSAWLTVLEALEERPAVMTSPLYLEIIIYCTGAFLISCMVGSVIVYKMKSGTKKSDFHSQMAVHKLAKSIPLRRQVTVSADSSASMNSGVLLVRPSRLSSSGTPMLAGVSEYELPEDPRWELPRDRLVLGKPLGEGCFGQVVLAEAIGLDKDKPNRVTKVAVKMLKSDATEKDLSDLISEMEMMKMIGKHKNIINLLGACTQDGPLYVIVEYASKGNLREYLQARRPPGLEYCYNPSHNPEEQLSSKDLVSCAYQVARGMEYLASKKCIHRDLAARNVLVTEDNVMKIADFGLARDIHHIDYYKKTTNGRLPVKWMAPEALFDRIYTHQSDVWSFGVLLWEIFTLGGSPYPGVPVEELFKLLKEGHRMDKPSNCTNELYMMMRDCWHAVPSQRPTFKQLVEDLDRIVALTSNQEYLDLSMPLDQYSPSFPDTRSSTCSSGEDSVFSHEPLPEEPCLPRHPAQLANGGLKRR
pIC50: −log10 of the molar value.

{"structure smiles string": "CN1CCN(c2ccc(Nc3ncc4cc(C#N)c(=O)n(C5CCCC5)c4n3)cc2)CC1", "measured on": "Fibroblast growth factor receptor 1 (Homo sapiens)", "pIC50": 7.59}

====

assay remarks: Toxicity in CD-1 mouse […] assessed as survival rate at 200 mg/kg, ip administered for 5 days measured after 10 days
Assay type: organism-based
Parameters: dose 200 mg/kg, route intraperitoneal
condition summary: in vivo
parameter: survival at 240 h (%)

{"structure smiles string": "CN1CCN(c2ccc(Nc3ncc4cc(C#N)c(=O)n(C5CCCC5)c4n3)cc2)CC1", "measurement": 100}
